read-out: ABC Transporter (ABCC3), ABCC3 (gene 8714); test: LTEA_HepaRG_ABCC3: Life Technologies and Expression Analysis (LTEA) Assay for ABC Transporter (ABCC3) using HepaRG (AID 2283462); settings: mRNA level, 48 h; actives raise or lower the signal
Activity calls are given as the source filed them. The calls were made as follows: active = hit-call score of the fitted dose curve at least 0.9, where 1 is the maximum; inactive = score below 0.9.
Pick from 1 for active, 0 for inactive when you respond.

Task: Hello, I am checking results. What call was entered for C=CN1CCCC1=O ?
Output: 0

Task: Check the results log: what was the call for O=C(NO)C1(NS(=O)(=O)c2ccc(Oc3ccc(F)cc3)cc2)CCOCC1 ?
Output: 1

Task: Recorded test outcome, item CCCCN1C(=O)[C@@H]([C@H](O)C2CCCCC2)NC(=O)C12CCN(Cc1ccc(Oc3ccc(C(=O)O)cc3)cc1)CC2
Output: 1

Task: Given O=C(O)[C@H](O)[C@@H](O)C(=O)O , state the outcome it received in this test.
Output: 0

Task: State the result this test recorded for CC(C)c1nnc2ccc(-c3ocnc3-c3cc(F)ccc3F)cn12 .
Output: 1

Task: How was CCCCCCCCCCCCCCO classified in this test?
Output: 0

Task: Could you please tell me the result logged for O=C1CN(N=Cc2ccc([N+](=O)[O-])o2)C(=O)N1 in this assay?
Output: 0

Task: Look up the recorded call for CC(C)CCCCCCOC(=O)C1CCCCC1C(=O)OCCCCCCC(C)C (configuration not stated) in this test.
Output: 0

Task: Status in this test for c1ccc(C(O[C@@H]2CCCN(CCc3ccc4c(c3)OCO4)C2)c2ccccc2)cc1 ?
Output: 1

Task: Each compound tested received a call. Report the one for COCc1nnc(-c2ccc[n+]([O-])c2)n1-c1c(Cl)c(Cl)cc2[nH]c(=O)c(=O)[nH]c12 .
Output: 0

Task: For CCCc1ccccc1 , which call appears in the assay record?
Output: 0

Task: Per the assay record, what outcome was assigned to CCc1cccc(CC)c1N ?
Output: 0

Where these numbers come from: PubChem BioAssay (EPA / NIEHS)
